TGT: hIMPDH2 (Homo sapiens)
Construct: purchased NovoCIB SAS (Lyon, France)
PROTOCOL DESCRIPTION: In vitro hIMPDH2 inhibition assay
Type: biochemical
EXPERIMENTAL CONTEXT: triplicate; determined when inhibition >70% at 10 µM; read-out: hIMPDH2 enzyme IC50 (µM) ± SD
OBSERVABLE: IC50 (µM)

Sample records with IC50:
| COMPOUND | UNIT | OBSERVED VALUE |
| --- | --- | --- |
| COc1c(C)c2c(c(O)c1C/C=C(\C)CCC(=O)NCc1ccccc1Cl)C(=O)OC2 [Compound 16] | µM | 0.73 |
| COc1c(C)c2c(c(O)c1C/C=C(\C)CCC(=O)NCc1ccc(C)cc1)C(=O)OC2 [Compound 19] | µM | 0.6 |
| COc1c(C)c2c(c(O)c1C/C=C(\C)CCC(=O)NCc1ccccc1C)C(=O)OC2 [Compound 23] | µM | 0.5 |
| COc1c(C)c2c(c(O)c1C/C=C(\C)CCC(=O)NCc1ccc(Cl)cc1)C(=O)OC2 [Compound 20] | µM | 0.57 |
| COc1c(C)c2c(c(O)c1C/C=C(\C)CCC(=O)NCc1ccc3c(c1)OCO3)C(=O)OC2 [Compound 25] | µM | 0.51 |

P = COc1c(C)c2c(c(O)c1C/C=C(\C)CCC(=O)NCCCCc1ccccc1)C(=O)OC2 [Compound 24]
Q = COc1ccc(CNC(=O)CC/C(C)=C/Cc2c(O)c3c(c(C)c2OC)COC3=O)cc1 [Compound 18]
Record comparison, field IC50: mark the lower of P and Q . Reply with the label of the item you choose. Q
